# TARGET_OF_ASSAY: human flk-1 (Homo sapiens, UniProt P35968)
# Construct: host or cells: Flk-1/NIH cells (NIH fibroblasts)
# Sequence (P35968 20-1356): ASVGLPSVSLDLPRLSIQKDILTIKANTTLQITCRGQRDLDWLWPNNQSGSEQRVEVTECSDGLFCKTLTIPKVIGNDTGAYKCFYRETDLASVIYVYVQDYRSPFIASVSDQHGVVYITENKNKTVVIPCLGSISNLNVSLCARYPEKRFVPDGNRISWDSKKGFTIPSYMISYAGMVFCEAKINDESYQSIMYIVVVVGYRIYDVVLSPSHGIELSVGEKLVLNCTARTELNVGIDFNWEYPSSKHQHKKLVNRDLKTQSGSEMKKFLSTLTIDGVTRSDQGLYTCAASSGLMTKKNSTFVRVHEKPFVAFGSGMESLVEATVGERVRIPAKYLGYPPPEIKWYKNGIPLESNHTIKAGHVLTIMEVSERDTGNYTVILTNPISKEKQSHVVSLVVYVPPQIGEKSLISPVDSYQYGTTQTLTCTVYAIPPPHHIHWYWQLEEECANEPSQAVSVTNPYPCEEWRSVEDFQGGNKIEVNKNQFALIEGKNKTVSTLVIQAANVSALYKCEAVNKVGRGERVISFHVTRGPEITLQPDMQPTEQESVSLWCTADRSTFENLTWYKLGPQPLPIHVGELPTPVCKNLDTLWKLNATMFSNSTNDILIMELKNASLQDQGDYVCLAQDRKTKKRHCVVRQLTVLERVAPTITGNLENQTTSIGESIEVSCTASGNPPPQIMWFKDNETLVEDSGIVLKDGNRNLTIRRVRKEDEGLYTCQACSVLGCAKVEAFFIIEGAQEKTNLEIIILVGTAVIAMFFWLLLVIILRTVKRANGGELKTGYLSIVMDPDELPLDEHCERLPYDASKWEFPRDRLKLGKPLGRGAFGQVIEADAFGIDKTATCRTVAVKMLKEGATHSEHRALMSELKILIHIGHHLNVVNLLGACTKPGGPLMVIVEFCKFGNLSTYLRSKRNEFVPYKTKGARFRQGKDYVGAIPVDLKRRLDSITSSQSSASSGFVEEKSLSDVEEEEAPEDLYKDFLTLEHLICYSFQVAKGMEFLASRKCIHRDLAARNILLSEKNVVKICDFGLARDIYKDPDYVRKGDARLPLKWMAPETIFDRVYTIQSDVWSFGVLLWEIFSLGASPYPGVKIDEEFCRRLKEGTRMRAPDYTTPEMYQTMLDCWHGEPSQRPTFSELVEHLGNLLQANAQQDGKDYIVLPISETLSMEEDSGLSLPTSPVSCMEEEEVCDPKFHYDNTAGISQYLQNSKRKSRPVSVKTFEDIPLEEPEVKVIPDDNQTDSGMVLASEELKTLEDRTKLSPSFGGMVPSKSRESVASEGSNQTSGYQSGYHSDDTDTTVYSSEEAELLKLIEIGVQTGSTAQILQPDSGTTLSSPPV
# MEASUREMENT_PROTOCOL: Biochemical FLK-1 assay (flk-1 autophosphorylation ELISA)
# MEASUREMENT_CONTEXT: read-out: bio FLK1 IC50 (μM) % if inhibition at 100
Flag rule - IC50 less than 0.2 µM flags Met; the remaining entries get Not met.

Use the examples below as a reference point.
COc1ccc2c(c1)NC(=O)/C2=C\c1[nH]cc(C)c1CCC(=O)O : Not met
O=C1Nc2ccc(C(=O)O)cc2/C1=C/c1cc2ccccc2[nH]1 : Not met
Cc1c(/C=C2\C(=O)Nc3ccc(Br)cc32)[nH]c2ccccc12 : Not met
O=C(CCc1c(/C=C2\C(=O)Nc3ccccc32)[nH]c2c1CCCC2)NCCN1CCOCC1 : Not met
O=C(O)CCc1c(/C=C2\C(=O)Nc3ccc(Cl)cc32)[nH]c2c1CCCC2 : Met
Cc1ccc2c(c1)/C(=C/c1[nH]c3c(c1CCC(=O)O)CCCC3)C(=O)N2 : Met
O=C(O)CCc1c(/C=C2\C(=O)Nc3cc(-c4ccccc4)ccc32)[nH]c2c1CCCC2 : Not met

Prompt line: Threshold test, IC50 < 0.2 µM: `Cc1c[nH]c(C=C2C(=O)Nc3cc(Cl)ccc32)c1CCC(=O)O`
Response line: Met

* * *

# TARGET_OF_ASSAY: Myc-GyrB-FGFR fusion protein (Homo sapiens)
# Sequence (P11362 478-767 limits assumed): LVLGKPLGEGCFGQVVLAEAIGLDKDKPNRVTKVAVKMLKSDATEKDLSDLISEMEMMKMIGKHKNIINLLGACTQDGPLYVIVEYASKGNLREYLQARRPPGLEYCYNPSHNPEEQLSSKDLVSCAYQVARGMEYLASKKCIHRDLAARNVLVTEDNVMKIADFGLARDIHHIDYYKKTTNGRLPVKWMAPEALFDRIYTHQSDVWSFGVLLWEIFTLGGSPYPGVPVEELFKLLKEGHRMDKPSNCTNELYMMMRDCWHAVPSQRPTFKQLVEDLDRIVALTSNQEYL
# MEASUREMENT_PROTOCOL: Biochemical FGFR assay (ELISA)
# MEASUREMENT_CONTEXT: bio fgfR1 IC50
PARAMETER: IC50 (nM)
Give bare numbers, in nM.

Prompt line: Look up and state reported IC50 for `Cc1c[nH]c(/C=C2\C(=O)Nc3ccccc32)c1CCC(=O)O`
Response line: 70

* * *

# TARGET_OF_ASSAY: 3T3 cell line genetically engineered to express human EGF-R (Homo sapiens)
# MEASUREMENT_PROTOCOL: EGF-induced BrdU incorporation assay
# MEASUREMENT_CONTEXT: read-out: BrdU EGF driven IC50
# Method: The cellular/catalytic assays described herein are performed in an ELISA format. […] Non-substrate components of the cell lysate are washed away and the amount of phosphorylation on the substrate is detected with an antibody specifically recognizing phosphotyrosine compared with control cells that were not contacted with a test compound. […]
PARAMETER: IC50 (µM)
Give bare numbers, in µM.

CC(C)c1cc(/C=C2/C(=O)Nc3ccc(Br)cc32)cc(C(C)C)c1OCCN1CCOCC1 [Example 57] : 12.3

Could I get IC50 for every one of these entries?
1. COc1ccc(C=C2C(=O)Nc3ccccc32)cc1-c1cccc(NC(C)=O)c1 [Example 29]
2. COc1cc(C)c(/C=C2/C(=O)Nc3ccc(F)cc32)cc1C(C)C [Example 30]

Response line:
1. 15.2
2. 30.3

Could I get IC50 for every one of these entries?
1. COc1c(C(C)C)cc(/C=C2/C(=O)Nc3ccc(Cl)cc32)cc1C(C)C [Example 2]
2. COc1c(C(C)C)cc(/C=C2/C(=O)Nc3cc(O)ccc32)cc1C(C)C [Example 4]

Response line:
6.5
26.6

Could I get IC50 for every one of these entries?
1. CC1(C)CCc2cc(/C=C3/C(=O)Nc4ccc(Cl)cc43)ccc2O1 [Example 15]
2. CC(=O)Nc1ccc2c(c1)NC(=O)/C2=C/c1ccc(OCCN2CCOCC2)c(-c2cccs2)c1 [Example 40]
3. COc1ccc2c(c1)/C(=C\c1cc(C(C)C)c(OC)c(C(C)C)c1)C(=O)N2 [Example 17]
4. COc1ccc(/C=C2/C(=O)Nc3ccccc32)cc1C(C)C [Example 7]
5. COc1ccc(C=C2C(=O)Nc3cc(NC(C)=O)ccc32)cc1-c1cccc(NC(C)=O)c1 (mixture of isomers) [Example 63]
6. CC(C)c1cc(/C=C2/C(=O)Nc3ccc(Cl)cc32)cc(C(C)C)c1OCCN1CCOCC1 [Example 24]
7. COc1ccc(/C=C2/C(=O)Nc3ccc(F)cc32)cc1C1CCCC1 [Example 11]
8. COc1ccc(/C=C2/C(=O)Nc3ccccc32)cc1C1CCCC1 [Example 10]

Response line:
1: 7.8; 2: 28.6; 3: 7.4; 4: 24.5; 5: 30.5; 6: 7.5; 7: 23.3; 8: 29

Could I get IC50 for every one of these entries?
1. COc1ccc(/C=C2/C(=O)Nc3ccc(Cl)cc32)cc1-c1cccs1 [Example 59]
2. COc1c(C(C)C)cc(/C=C2/C(=O)Nc3ccc(C)cc32)cc1C(C)C [Example 19]
3. COc1cc(C)c(/C=C2/C(=O)Nc3ccc(Br)cc32)cc1C(C)C [Example 36]
4. COC(=O)c1ccc2c(c1)/C(=C\c1cc(C(C)C)c(OC)c(C(C)C)c1)C(=O)N2 [Example 6]
5. Cc1c[nH]c(/C=C2\C(=O)Nc3cccc(C)c32)c1CCC(=O)O [Example 218]
6. CC(=O)Nc1ccc2c(c1)NC(=O)/C2=C/c1ccc(OCCN2CCOCC2)c(-c2ccsc2)c1 [Example 50]

Response line:
1: 44.5; 2: 9.3; 3: 31; 4: 12; 5: 43.5; 6: 37.9

Could I get IC50 for every one of these entries?
1. CC(=O)Nc1ccc2c(c1)NC(=O)/C2=C/c1ccc(OCCN2CCOCC2)c(C2CCCCC2)c1 [Example 16]
2. COc1cc(C)c(C=C2C(=O)Nc3ccc(Cl)cc32)cc1C(C)C [Example 9]
3. COc1c(C)cc(/C=C2/C(=O)Nc3ccc(Cl)cc32)cc1C [Example 21]
4. COc1ccc(/C=C2/C(=O)Nc3ccccc32)cc1-c1ccsc1 [Example 35]
5. COc1c(C(C)C)cc(/C=C2/C(=O)Nc3ccc(C(C)=O)cc32)cc1C(C)C [Example 5]
6. CCOc1cccc(-c2cc(C=C3C(=O)Nc4ccccc43)ccc2OC)c1 [Example 46]

Response line:
[6.4, 11, 8, 28.1, 7.2, 45.7]

* * *

Exercise: state measured log10 IC50 for each of the molecules provided.
# TARGET_OF_ASSAY: 3T3 cell line genetically engineered to express human PDGF-R (Homo sapiens)
# Construct: expressed in transfected cells; host or cells: 3T3
# MEASUREMENT_PROTOCOL: PDGF-induced BrdU incorporation assay
# Format: cell-based
# MEASUREMENT_CONTEXT: read-out: PDGF-Induced BrdU Incorp. IC50
Heads up, the numbers here are log10 of IC50 in µM units.

Cc1cccc2c1/C(=C/c1[nH]c3c(c1CCC(=O)O)CCCC3)C(=O)N2 [Example 193] : 1.13
COc1ccc2c(c1)NC(=O)/C2=C\c1[nH]c2c(c1CCC(=O)O)CCCC2 [Example 196] : 0.48
Cc1c[nH]c(C=C2C(=O)Nc3cc(Cl)ccc32)c1CCC(=O)O [Example 219] : 0.90
O=C(O)CCc1c(/C=C2\C(=O)Nc3ccc(Cl)cc32)[nH]c2c1CCCC2 [Example 191] : 0.04
Cc1c[nH]c(/C=C2\C(=O)Nc3cccc(C)c32)c1CCC(=O)O [Example 218] : 1.39
O=C(O)CCc1c(/C=C2\C(=O)Nc3ccc(Br)cc32)[nH]c2c1CCCC2 [Example 192] : 0.15
CN(C)C(=O)CCc1c(/C=C2\C(=O)Nc3ccccc32)[nH]c2c1CCCC2 [Example 197] : 0.69
CN(C)CCCc1c(/C=C2\C(=O)Nc3ccccc32)[nH]c2c1CCCC2 [Example 198] : 0.62
O=C(O)CCc1c(/C=C2\C(=O)Nc3cc(Cl)ccc32)[nH]c2c1CCCC2 [Example 195] : 0.57

Let us move to another entry and its log10 IC50.
Prompt line: Look up and state reported log10 IC50 for COc1ccc2c(c1)NC(=O)/C2=C\c1[nH]cc(C)c1CCC(=O)O [Example 217]
Response line: 0.94

* * *

Exercise: state measured pIC50 for each of the compounds provided.
# Test system: HUV-EC-C cells (VEGF, Flk-1/KDR)
# MEASUREMENT_PROTOCOL: HUV-EC-C assay, VEGF-stimulated 3H-thymidine incorporation
# Format: cell-based
# MEASUREMENT_CONTEXT: Homo sapiens, read-out: HUVEC-VEGF IC50
One number for each entry, as −log10 of the molar value.

Solved cases (2 shown):
Cc1c[nH]c(/C=C2\C(=O)Nc3ccc(Br)cc32)c1CCC(=O)O : 7.40
COc1ccc2c(c1)NC(=O)/C2=C\c1[nH]c2c(c1CCC(=O)O)CCCC2 : 7.70

Prompt line: Look up and state reported pIC50 for `O=C(O)CCc1c(/C=C2\C(=O)Nc3ccc(Cl)cc32)[nH]c2c1CCCC2`
Response line: 10.40

* * *

Exercise: state measured IC50 for each of the compounds provided.
# TARGET_OF_ASSAY: src protein kinase (Gallus gallus)
Numbers only, in µM.

Cc1ccc2c(c1)/C(=C/c1[nH]c3c(c1CCC(=O)O)CCCC3)C(=O)N2 : 20.6
Cc1c[nH]c(C=C2C(=O)Nc3cc(Cl)ccc32)c1CCC(=O)O : 0.08
Cc1c[nH]c(/C=C2\C(=O)Nc3ccccc32)c1CCC(=O)O : 5.59
CN(C)CCCc1c(/C=C2\C(=O)Nc3ccccc32)[nH]c2c1CCCC2 : 2.34

Could I get IC50 for every one of these entries?
1. Cc1c[nH]c(/C=C2\C(=O)Nc3ccc(Br)cc32)c1CCC(=O)O
2. O=C(O)CCc1c(/C=C2\C(=O)Nc3cc(Cl)ccc32)[nH]c2c1CCCC2

Response line:
1: 6.48; 2: 0.26
